- assay.remarks: GLP 28-day oral toxicity and toxicokinetics study
- Type: in vivo, Sprague Dawley rats
- cond: female, Sprague Dawley, rat, in vivo, po, 100 mg/kg/day, t1/2
outcome.measure: half-life (h)

{"columns": ["compound", "obs.value"],
 "data": [
  ["NS(=O)(=O)c1ccc(Nc2ncc3cc4n(c3n2)C2(CCCCC2)C(=O)NN4)cc1", 3.93]
]}

----------
- study.system: human OATP1B3 (Homo sapiens, UniProt Q9NPD5)
- Construct: expressed in transfected cells; host or cells: HEK293
- Sequence (Q9NPD5 whole entry): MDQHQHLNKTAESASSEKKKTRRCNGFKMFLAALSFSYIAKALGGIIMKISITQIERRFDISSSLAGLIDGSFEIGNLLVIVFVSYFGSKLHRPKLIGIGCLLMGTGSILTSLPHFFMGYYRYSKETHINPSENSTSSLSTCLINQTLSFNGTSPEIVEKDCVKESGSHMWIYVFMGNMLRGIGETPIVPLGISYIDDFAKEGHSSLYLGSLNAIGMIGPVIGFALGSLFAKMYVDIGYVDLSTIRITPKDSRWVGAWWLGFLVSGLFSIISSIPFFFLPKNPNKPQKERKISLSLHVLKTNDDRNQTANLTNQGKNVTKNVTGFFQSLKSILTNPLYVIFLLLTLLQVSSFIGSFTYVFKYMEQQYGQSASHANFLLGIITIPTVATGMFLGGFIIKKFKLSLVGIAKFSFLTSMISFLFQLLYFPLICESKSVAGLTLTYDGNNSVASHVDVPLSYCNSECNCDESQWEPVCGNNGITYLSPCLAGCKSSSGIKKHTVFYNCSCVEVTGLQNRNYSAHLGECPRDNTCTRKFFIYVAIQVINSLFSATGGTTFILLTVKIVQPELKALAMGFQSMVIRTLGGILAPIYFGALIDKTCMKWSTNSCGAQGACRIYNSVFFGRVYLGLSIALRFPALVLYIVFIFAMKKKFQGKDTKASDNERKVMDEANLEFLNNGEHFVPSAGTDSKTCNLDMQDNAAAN
- assay.remarks: SLC transporter inhibition in HEK293 cells
- Type: in vitro ADME
- cond: OATP1B3, HEK293 cells; read-out: IC50
pIC50: −log10 of the molar value.

{"columns": ["compound", "pIC50"],
 "data": [
  ["NS(=O)(=O)c1ccc(Nc2ncc3cc4n(c3n2)C2(CCCCC2)C(=O)NN4)cc1", 5.21]
]}

----------
- study.system: human OAT3 (Homo sapiens, UniProt Q8TCC7)
- Construct: expressed in transfected cells; host or cells: HEK293
- Sequence (Q8TCC7 1-542): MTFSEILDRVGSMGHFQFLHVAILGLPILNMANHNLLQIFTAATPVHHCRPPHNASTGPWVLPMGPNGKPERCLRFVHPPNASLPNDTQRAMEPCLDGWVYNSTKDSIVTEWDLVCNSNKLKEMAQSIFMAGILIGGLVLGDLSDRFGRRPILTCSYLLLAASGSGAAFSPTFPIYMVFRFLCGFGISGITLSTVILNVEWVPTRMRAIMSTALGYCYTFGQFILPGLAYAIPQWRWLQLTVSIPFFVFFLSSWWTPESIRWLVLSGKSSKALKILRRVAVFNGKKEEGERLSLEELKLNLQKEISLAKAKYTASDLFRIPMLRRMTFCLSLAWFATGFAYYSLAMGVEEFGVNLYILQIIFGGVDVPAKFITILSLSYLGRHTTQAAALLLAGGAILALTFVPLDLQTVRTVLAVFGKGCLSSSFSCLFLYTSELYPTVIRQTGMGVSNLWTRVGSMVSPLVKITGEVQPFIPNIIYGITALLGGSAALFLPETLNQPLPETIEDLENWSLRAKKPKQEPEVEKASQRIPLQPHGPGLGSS
- assay.remarks: SLC transporter inhibition in HEK293 cells
- Assay type: in vitro ADME
- cond: read-out: OAT3 IC50
pIC50: −log10 of the molar value.
outcome.measure: pIC50

{"columns": ["compound", "outcome.measure", "obs.value"],
 "data": [
  ["NS(=O)(=O)c1ccc(Nc2ncc3cc4n(c3n2)C2(CCCCC2)C(=O)NN4)cc1", "pIC50", 5.40]
]}

----------
- assay.remarks: GLP 28-day oral toxicity and toxicokinetics study
- Format: in vivo, Beagle dogs
- cond: female, Beagle, dog, in vivo, po, 250 mg/kg, plasma Cmax

{"columns": ["compound", "Cmax"],
 "data": [
  ["NS(=O)(=O)c1ccc(Nc2ncc3cc4n(c3n2)C2(CCCCC2)C(=O)NN4)cc1", "961 ng/mL"]
]}

----------
- assay.remarks: GLP 28-day oral toxicity and toxicokinetics study
- Type: in vivo, Beagle dogs
- cond: male, Beagle, dog, in vivo, po, plasma Cmax
outcome.measure: Cmax (ng/mL)

{"columns": ["compound", "outcome.measure", "unit.abbrev", "obs.value"],
 "data": [
  ["NS(=O)(=O)c1ccc(Nc2ncc3cc4n(c3n2)C2(CCCCC2)C(=O)NN4)cc1", "Cmax", "ng/mL", 307]
]}

----------
- assay.remarks: GLP 28-day oral toxicity and toxicokinetics study
- Assay type: in vivo, Beagle dogs
- cond: female, Beagle, dog, in vivo, po, 500 mg/kg/day, AUC0-24
- Protocol: Nominal dose values and sampling times were used for calculations. Any concentration reported as BLQ (LLOQ<1.0 ng/mL) was set equal to zero. Toxicokinetic analyses included Cmax, Tmax, AUC0-24, t1/2, RA Cmax, and RA AUC0-24. Forty (20 per sex) Beagle dogs were randomly assigned to groups and dosed twice daily (approximately 8 hours+1-hour apart) via oral gavage for 28 consecutive days. […]

{"columns": ["compound", "AUC(0-t), ng·h/mL"],
 "data": [
  ["NS(=O)(=O)c1ccc(Nc2ncc3cc4n(c3n2)C2(CCCCC2)C(=O)NN4)cc1", 10100]
]}

----------
- assay.remarks: GLP 28-day oral toxicity and toxicokinetics study
- Type: in vivo, Sprague Dawley rats
- cond: male, Sprague Dawley, rat, in vivo, po, 1000 mg/kg/day, plasma AUC0-24
- Description: One-hundred and sixty (80 per sex) Sprague Dawley rats were randomly assigned to groups and dosed once daily via oral gavage for 28 consecutive days. Nominal dose values and sampling times were used for calculations. Any concentration reported as BLQ (LLOQ<1.0 ng/ml) was set equal to zero. Toxicokinetic analyses included Cmax, Tmax, AUC0-24, t1/2, RA Cmax, and RA AUC0-24. […]
outcome.measure: AUC(0-t)

{"columns": ["compound", "obs.value"],
 "data": [
  ["NS(=O)(=O)c1ccc(Nc2ncc3cc4n(c3n2)C2(CCCCC2)C(=O)NN4)cc1", "8130 ng·h/mL"]
]}

----------
- study.system: CYP3A4 (testosterone as substrate) (Homo sapiens)
- Construct: human liver microsomes were incubated in the appropriate isoform-specific probe substrate
- Sequence (P08684 whole entry, canonical isoform): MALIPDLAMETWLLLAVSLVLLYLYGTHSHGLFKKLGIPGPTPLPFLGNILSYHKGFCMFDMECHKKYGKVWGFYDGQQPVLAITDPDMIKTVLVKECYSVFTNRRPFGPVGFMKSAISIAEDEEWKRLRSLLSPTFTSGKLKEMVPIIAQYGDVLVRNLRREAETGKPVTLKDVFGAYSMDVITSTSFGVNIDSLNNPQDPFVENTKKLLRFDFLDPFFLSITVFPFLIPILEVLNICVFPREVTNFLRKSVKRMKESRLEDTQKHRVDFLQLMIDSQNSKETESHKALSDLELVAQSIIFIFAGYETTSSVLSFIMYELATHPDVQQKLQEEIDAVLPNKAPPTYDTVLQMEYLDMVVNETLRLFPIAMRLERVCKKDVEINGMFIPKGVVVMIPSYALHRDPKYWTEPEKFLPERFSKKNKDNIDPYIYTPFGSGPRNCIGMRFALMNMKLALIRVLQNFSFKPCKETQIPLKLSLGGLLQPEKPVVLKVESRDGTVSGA
- assay.remarks: CYP inhibition in human liver microsomes

{"columns": ["compound", "IC50 [µM]"],
 "data": [
  ["NS(=O)(=O)c1ccc(Nc2ncc3cc4n(c3n2)C2(CCCCC2)C(=O)NN4)cc1", 9.59]
]}

----------
- assay.remarks: GLP 28-day oral toxicity and toxicokinetics study
- Assay type: in vivo, Beagle dogs
- cond: male, Beagle, dog, in vivo, po, 20 mg/kg/day, AUC0-24

{"columns": ["compound", "AUC(0-t) / ng·h/mL"],
 "data": [
  ["NS(=O)(=O)c1ccc(Nc2ncc3cc4n(c3n2)C2(CCCCC2)C(=O)NN4)cc1", 2460]
]}

----------
- study.system: CYP2B6 (Homo sapiens)
- Construct: human liver microsomes were incubated in the appropriate isoform-specific probe substrate
- Sequence (P20813 whole entry, canonical isoform): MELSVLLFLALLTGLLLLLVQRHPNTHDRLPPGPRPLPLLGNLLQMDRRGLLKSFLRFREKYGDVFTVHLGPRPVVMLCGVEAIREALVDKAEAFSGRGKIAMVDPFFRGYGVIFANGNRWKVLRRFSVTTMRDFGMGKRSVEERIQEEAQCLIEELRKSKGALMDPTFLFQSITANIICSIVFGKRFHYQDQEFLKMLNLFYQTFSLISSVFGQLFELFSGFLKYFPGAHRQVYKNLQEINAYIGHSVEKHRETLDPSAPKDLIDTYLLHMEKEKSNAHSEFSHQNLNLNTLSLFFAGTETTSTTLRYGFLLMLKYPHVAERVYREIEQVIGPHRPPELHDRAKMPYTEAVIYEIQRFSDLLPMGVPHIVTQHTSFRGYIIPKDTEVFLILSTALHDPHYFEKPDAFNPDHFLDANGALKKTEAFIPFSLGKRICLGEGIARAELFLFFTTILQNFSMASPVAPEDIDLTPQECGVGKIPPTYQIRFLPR
- assay.remarks: CYP inhibition in human liver microsomes
- cond: CYP2B6, substrate Bupropion, human liver microsomes

{"columns": ["compound", "IC50"],
 "data": [
  ["NS(=O)(=O)c1ccc(Nc2ncc3cc4n(c3n2)C2(CCCCC2)C(=O)NN4)cc1", "> 25 µM"]
]}

----------
- assay.remarks: GLP 28-day oral toxicity and toxicokinetics study
- Format: in vivo, Beagle dogs
- cond: female, Beagle, dog, in vivo, po, 20 mg/kg/day, Cmax

{"columns": ["compound", "Cmax"],
 "data": [
  ["NS(=O)(=O)c1ccc(Nc2ncc3cc4n(c3n2)C2(CCCCC2)C(=O)NN4)cc1 [Compound I]", "267 ng/mL"]
]}

----------
- assay.remarks: GLP 28-day oral toxicity and toxicokinetics study
- Assay type: in vivo, Beagle dogs
- cond: male, Beagle, dog, in vivo, po, 250 mg/kg, plasma Cmax

{"columns": ["molecule", "unit.abbrev", "Cmax"],
 "data": [
  ["NS(=O)(=O)c1ccc(Nc2ncc3cc4n(c3n2)C2(CCCCC2)C(=O)NN4)cc1 [Compound I]", "ng/mL", 1500]
]}

----------
- study.system: CYP2C9 (Homo sapiens, UniProt P11712)
- Construct: human liver microsomes were incubated in the appropriate isoform-specific probe substrate
- Sequence (P11712 whole entry, canonical isoform): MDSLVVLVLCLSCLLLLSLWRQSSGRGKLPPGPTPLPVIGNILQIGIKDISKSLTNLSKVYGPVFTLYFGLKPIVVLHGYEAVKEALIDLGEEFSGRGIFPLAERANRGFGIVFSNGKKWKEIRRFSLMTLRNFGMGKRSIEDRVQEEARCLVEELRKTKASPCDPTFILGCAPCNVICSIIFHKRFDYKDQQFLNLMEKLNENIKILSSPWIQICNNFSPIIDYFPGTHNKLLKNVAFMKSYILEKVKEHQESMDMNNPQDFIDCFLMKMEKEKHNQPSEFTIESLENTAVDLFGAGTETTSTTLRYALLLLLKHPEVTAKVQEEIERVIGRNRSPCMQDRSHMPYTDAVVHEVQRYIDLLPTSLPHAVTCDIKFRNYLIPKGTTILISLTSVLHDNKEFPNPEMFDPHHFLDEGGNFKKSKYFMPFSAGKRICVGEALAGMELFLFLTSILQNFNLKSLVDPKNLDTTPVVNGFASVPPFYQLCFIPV
- assay.remarks: CYP inhibition in human liver microsomes

{"columns": ["compound", "unit.abbrev", "IC50"],
 "data": [
  ["NS(=O)(=O)c1ccc(Nc2ncc3cc4n(c3n2)C2(CCCCC2)C(=O)NN4)cc1", "µM", 14.9]
]}

----------
- assay.remarks: GLP 28-day oral toxicity and toxicokinetics study
- Type: in vivo, Beagle dogs
- cond: female, Beagle, dog, in vivo, po, 100 mg/kg/day, AUC0-24

{"columns": ["compound", "AUC(0-t)"],
 "data": [
  ["NS(=O)(=O)c1ccc(Nc2ncc3cc4n(c3n2)C2(CCCCC2)C(=O)NN4)cc1", "9160 ng·h/mL"]
]}

----------
- assay.remarks: GLP 28-day oral toxicity and toxicokinetics study
- Assay type: in vivo, Sprague Dawley rats
- cond: female, Sprague Dawley, rat, in vivo, po, 100 mg/kg/day, Cmax
outcome.measure: Cmax (ng/mL)

{"columns": ["compound", "unit.abbrev", "obs.value"],
 "data": [
  ["NS(=O)(=O)c1ccc(Nc2ncc3cc4n(c3n2)C2(CCCCC2)C(=O)NN4)cc1 [Compound I]", "ng/mL", 3330]
]}

----------
- assay.remarks: GLP 28-day oral toxicity and toxicokinetics study
- Format: in vivo, Sprague Dawley rats
- cond: female, Sprague Dawley, rat, in vivo, po, 300 mg/kg/day, AUC0-24
outcome.measure: AUC(0-t) (µg·h/mL)

{"columns": ["molecule", "obs.value"],
 "data": [
  ["NS(=O)(=O)c1ccc(Nc2ncc3cc4n(c3n2)C2(CCCCC2)C(=O)NN4)cc1 [Compound I]", 11.4]
]}

----------
- study.system: MATE2-K (Homo sapiens)
- Sequence (Q86VL8 1-566 isoform Q86VL8-3): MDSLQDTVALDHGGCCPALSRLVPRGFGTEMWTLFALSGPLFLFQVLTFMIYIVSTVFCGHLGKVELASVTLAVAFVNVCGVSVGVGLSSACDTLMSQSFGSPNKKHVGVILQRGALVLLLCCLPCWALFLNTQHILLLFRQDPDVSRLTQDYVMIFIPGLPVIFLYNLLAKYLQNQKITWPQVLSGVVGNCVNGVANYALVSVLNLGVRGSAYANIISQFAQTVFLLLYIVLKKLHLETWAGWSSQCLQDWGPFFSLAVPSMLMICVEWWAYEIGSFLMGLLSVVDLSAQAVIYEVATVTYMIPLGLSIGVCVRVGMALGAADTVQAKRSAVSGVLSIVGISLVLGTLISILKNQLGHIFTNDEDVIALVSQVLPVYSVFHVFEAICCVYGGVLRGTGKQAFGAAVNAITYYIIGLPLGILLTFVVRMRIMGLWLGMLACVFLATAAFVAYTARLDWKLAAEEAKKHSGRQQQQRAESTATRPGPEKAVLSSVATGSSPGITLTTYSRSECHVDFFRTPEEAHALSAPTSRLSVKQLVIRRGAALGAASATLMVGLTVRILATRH
- assay.remarks: SLC transporter inhibition in HEK293 cells
- cond: human

{"columns": ["molecule", "IC50 / µM"],
 "data": [
  ["NS(=O)(=O)c1ccc(Nc2ncc3cc4n(c3n2)C2(CCCCC2)C(=O)NN4)cc1 [Compound I]", 0.74]
]}
